Reported pEC50 is given for each of the following compounds.
TARGET UNDER TEST: Neuronal acetylcholine receptor subunit alpha-7 (Homo sapiens, UniProt P36544)
Sequence (P36544 whole entry): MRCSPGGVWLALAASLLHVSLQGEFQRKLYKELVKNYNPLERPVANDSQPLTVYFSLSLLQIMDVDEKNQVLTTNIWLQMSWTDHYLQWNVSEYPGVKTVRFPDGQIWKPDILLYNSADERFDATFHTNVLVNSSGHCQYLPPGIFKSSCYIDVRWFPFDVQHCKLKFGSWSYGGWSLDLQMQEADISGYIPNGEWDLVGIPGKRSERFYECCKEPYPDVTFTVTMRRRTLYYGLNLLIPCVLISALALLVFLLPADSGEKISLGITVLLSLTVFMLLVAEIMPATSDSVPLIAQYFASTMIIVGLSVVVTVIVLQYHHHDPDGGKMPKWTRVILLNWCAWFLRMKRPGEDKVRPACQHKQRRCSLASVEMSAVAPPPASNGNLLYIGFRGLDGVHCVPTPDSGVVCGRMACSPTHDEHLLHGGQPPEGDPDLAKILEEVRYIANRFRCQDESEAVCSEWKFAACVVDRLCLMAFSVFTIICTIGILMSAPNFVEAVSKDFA
TEST NAME: Positive allosteric modulation of human alpha7 nAChR expressed in HEK cells assessed as potentiation of acetylcholine induced peak current amplitude preincubated for 58 secs followed by acetylcholine stimulation for 1 secs by automated patch-clamp electrophysiology
Format: cell-based
pEC50: −log10 of the molar value.
ASSAY READOUT: pEC50

[[record]]
compound = "CCOc1ccc([C@@H](NC(=O)C2CC23COc2ccc(F)cc23)C(F)F)cn1 (some centres undefined)"
reported_result = 5.52

[[record]]
compound = "CCOc1ccc([C@H](COC)NC(=O)C2CC23CCc2cc(F)ccc23)cc1 (some centres undefined)"
reported_result = 6.23

[[record]]
compound = "O=C(N[C@@H](CO)C1CCCCC1)C1CC12COc1ccc(F)cc12 (some centres undefined)"
reported_result = 6.11

[[record]]
compound = "CCOc1ccc([C@H](CF)NC(=O)C2CC23COc2ccc(F)cc23)cn1 (some centres undefined)"
reported_result = 6.10

[[record]]
compound = "CCOc1ccc([C@H](COC)NC(=O)C2CC23CCCc2ccccc23)cc1 (some centres undefined)"
reported_result = 6.13

[[record]]
compound = "O=C(NC1(c2ccc(F)cc2)COC1)C1CC12CCc1ccc(F)cc12 (centres undefined)"
reported_result = 6.09

[[record]]
compound = "O=C(N[C@@H](CO)C1CCCCC1)C1CC12COc1ccccc12 (some centres undefined)"
reported_result = 6.20

[[record]]
compound = "CCOc1ccc([C@H](COC)NC(=O)C2CC23CCc2ccc(F)cc23)cc1 (some centres undefined)"
reported_result = 6.15

[[record]]
compound = "O=C(NC1(c2ccc(F)cc2)COC1)C1CC12CCc1ccccc12 (centres undefined)"
reported_result = 5.49

